system: RWP1 cells; assay: Effect of anti-FZD5 Fabs on proliferation of pancreatic cancer cell lines (percent growth inhibition); assay type: cell-based, human; details: Fab 10 μg/ml
readout: percent growth inhibition, RWP1 10 μg/ml (%)
# number only, unit % dropped from output

Documented percent growth inhibition, RWP1 10 μg/ml of Fab-2932: anti-FZD5 Fab with antibody variable region Fv-2932; CDR SEQ ID NOs: 35, 36, 71, 108, 147, 153 (antibody, V domains shown) VH: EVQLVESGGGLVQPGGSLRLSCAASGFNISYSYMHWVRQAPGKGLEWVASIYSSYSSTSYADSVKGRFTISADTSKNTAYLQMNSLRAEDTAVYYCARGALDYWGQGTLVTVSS VL: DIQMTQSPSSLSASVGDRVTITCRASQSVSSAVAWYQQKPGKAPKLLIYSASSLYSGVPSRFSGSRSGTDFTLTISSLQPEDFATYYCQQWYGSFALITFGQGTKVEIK : 25.69

Documented percent growth inhibition, RWP1 10 μg/ml of Fab-2919: anti-FZD5 Fab with antibody variable region Fv-2919; CDR SEQ ID NOs: 35, 36, 58, 97, 134, 155 (antibody, V domains shown) VH: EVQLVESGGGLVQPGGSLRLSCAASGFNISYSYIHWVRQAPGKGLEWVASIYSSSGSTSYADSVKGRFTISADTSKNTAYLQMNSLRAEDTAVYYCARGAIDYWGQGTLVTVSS VL: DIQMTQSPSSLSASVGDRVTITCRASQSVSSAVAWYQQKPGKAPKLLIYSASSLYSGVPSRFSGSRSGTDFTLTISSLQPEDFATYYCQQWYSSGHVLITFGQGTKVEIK : 22.54

Documented percent growth inhibition, RWP1 10 μg/ml of Fab-2933: anti-FZD5 Fab with antibody variable region Fv-2933; CDR SEQ ID NOs: 35, 36, 72, 109, 148, 177 (antibody, V domains shown) VH: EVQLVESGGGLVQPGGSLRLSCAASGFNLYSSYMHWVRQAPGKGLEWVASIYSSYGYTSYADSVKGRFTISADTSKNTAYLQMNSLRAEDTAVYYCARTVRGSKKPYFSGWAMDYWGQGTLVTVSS VL: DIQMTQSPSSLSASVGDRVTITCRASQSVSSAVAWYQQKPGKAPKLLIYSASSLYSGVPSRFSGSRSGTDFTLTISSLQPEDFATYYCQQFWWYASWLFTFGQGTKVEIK : 27.16

The reported numbers originate from patent US20210253718A1.
